Test system: MIA PaCa-2 cells
method: In-vitro anti-proliferative activity in combination with gemcitabine on MIA PaCa-2 cells
Assay type: cell-based
recorded.conditions: with 20 nM gemcitabine, 72 h after dosing, intracellular ATP content
measurement.name: IC50 (nM)
Reply numerically in nM, unit not repeated.

Previously resolved entries follow.
>  <molecule>
CN1Cc2cc(Nc3ncc(C#N)c(Nc4cccc(N=S(C)(C)=O)n4)n3)cc3c2[C@](C)(CCC3)C1

>  <IC50 [nM]>
2.1

$$$$
>  <molecule>
CN1Cc2cc(Nc3ncc(C#N)c(Nc4cccc(N=S(C)(C)=O)n4)n3)cc3c2[C@@](C)(CCC3)C1

>  <IC50 [nM]>
5.3

$$$$

Let us examine a further case.
Query block: Please give the documented IC50 of CN1Cc2cc(Nc3ncc(C#N)c(Nc4cccc(P(C)(C)=O)n4)n3)cc3c2C(CCC3)C1 (stereo not shown)
Result block: 26
